System: PANC-1
method notes: Cytotoxicity against human PANC1 cells after 48 hrs by SRB assay
Format: functional
condition parameters: PANC-1, 48 h
property label: TGI
The number alone won't do; follow it with the unit.

Kindly note the recorded TGI for C/C=C1\NC(=O)[C@H](Cc2ccccc2)NC(=O)[C@@H](C(C)C)NC(=O)[C@@H]([C@H](C)CC)NC(=O)[C@H](NC(=O)[C@H](NC(=O)[C@H](CCCN)NC(=O)[C@H]2CCCN2C(=O)[C@H](NC(=O)[C@@H](NC(=O)[C@@H](NC(=O)[C@H](NC(=O)C2CCC(C)CC2)C(C)C)[C@@H](C)O)C(C)C)C(C)C)[C@H](C)CC)[C@H](C)OC(=O)[C@H](C(C)C)NC1=O (stereo partly specified) , which is 4.53 µM

====

System: SK-MEL-28
method notes: Cytotoxicity against human SK-MEL-28 cells after 48 hrs by SRB assay
Type: functional, cell-based
condition parameters: Homo sapiens, SK-MEL-28, 48 h
Recorded GI50 values for a group of molecules are listed next.
Just the number in nM, nothing appended.

Before answering, review these 3 worked examples.
{"columns": ["substance smiles", "reported"],
 "data": [
  ["C/C=C1\\NC(=O)[C@H](Cc2ccccc2)NC(=O)[C@@H](C(C)C)NC(=O)[C@@H]([C@H](C)CC)NC(=O)[C@H](NC(=O)[C@H](NC(=O)[C@H](CCCNC(=O)CCC2CCCCC2)NC(=O)[C@H]2CCCN2C(=O)[C@H](NC(=O)[C@@H](NC(=O)[C@@H](NC(=O)[C@H](NC(=O)CCCC(C)C)C(C)C)[C@@H](C)O)C(C)C)C(C)C)[C@H](C)CC)[C@H](C)OC(=O)[C@H](C(C)C)NC1=O", 150],
  ["C/C=C1\\NC(=O)[C@H](Cc2ccccc2)NC(=O)[C@@H](C(C)C)NC(=O)[C@@H]([C@H](C)CC)NC(=O)[C@H](NC(=O)[C@H](NC(=O)[C@H](CCCN)NC(=O)[C@H]2CCCN2C(=O)[C@H](NC(=O)[C@H](CCC2CCCCC2)NC(=O)[C@@H](NC(=O)[C@H](NC(=O)CCCC(C)C)C(C)C)[C@@H](C)O)C(C)C)[C@H](C)CC)[C@H](C)OC(=O)[C@H](C(C)C)NC1=O", 467],
  ["C/C=C1\\NC(=O)[C@H](Cc2ccccc2)NC(=O)[C@@H](C(C)C)NC(=O)[C@@H]([C@H](C)CC)NC(=O)[C@H](NC(=O)[C@H](NC(=O)[C@H](CCCN)NC(=O)[C@H]2CCCN2C(=O)[C@H](NC(=O)[C@H](Cc2ccccc2)NC(=O)[C@@H](NC(=O)[C@H](NC(=O)CCCC(C)C)C(C)C)[C@@H](C)O)C(C)C)[C@H](C)CC)[C@H](C)OC(=O)[C@H](C(C)C)NC1=O", 739]
]}

Moving on to another molecule below.
Record `C/C=C1\NC(=O)[C@H](Cc2ccccc2)NC(=O)[C@@H](C(C)C)NC(=O)[C@@H]([C@H](C)CC)NC(=O)[C@H](NC(=O)[C@H](NC(=O)[C@H](CCCN)NC(=O)[C@H]2CCCN2C(=O)[C@H](NC(=O)[C@@H](NC(=O)[C@@H](NC(=O)[C@H](NC(=O)CC[C@@H](C)[C@H]2CC[C@H]3[C@@H]4CC[C@@H]5C[C@H](OC(=O)C(F)(F)F)CC[C@]5(C)[C@H]4CC[C@]23C)C(C)C)[C@@H](C)O)C(C)C)C(C)C)[C@H](C)CC)[C@H](C)OC(=O)[C@H](C(C)C)NC1=O` , field GI50: 190

Origin of values: ChEMBL document CHEMBL1156597
